- Tested on: 898857-211-R-J1-PDC complex spheroids, growth % test/control
- ASSAY NOTES: Anticancer human tumor 898857-211-R-J1-PDC patient-derived melanoma cell line growth inhibition [RAS]
- CONDITION CONTEXT: second compound 0.00316 µM; first compound 0.00316 µM; active compounds read low
OBSERVED PROPERTY: viability, T/C

[[record]]
molecule = "O=C(c1ccc(F)c(F)c1Nc1ccc(I)cc1F)N1CC(O)([C@@H]2CCCCN2)C1 + C=CC(=O)N1CCN(c2nc(OCC3CCCN3C)nc3c(F)c(-c4nc(N)cc(C)c4C(F)(F)F)c(Cl)cc23)C(C)C1"
target_entity = "898857-211-R-J1-PDC complex spheroids, growth % test/control"
result = "60.9%"

[[record]]
molecule = "Nc1ccn(C2OC(CO)C(O)C2(F)F)c(=O)n1 (stereo not given) + C=CC(=O)N1CCN(c2nc(OCC3CCCN3C)nc3c(F)c(-c4nc(N)cc(C)c4C(F)(F)F)c(Cl)cc23)C(C)C1"
target_entity = "898857-211-R-J1-PDC complex spheroids, growth % test/control"
result = "110%"

[[record]]
molecule = "CC(C)n1nc(-c2ccc3oc(N)nc3c2)c2c(N)ncnc21 + C=CC(=O)N1CCN(c2nc(OCC3CCCN3C)nc3c(F)c(-c4nc(N)cc(C)c4C(F)(F)F)c(Cl)cc23)C(C)C1"
target_entity = "898857-211-R-J1-PDC complex spheroids, growth % test/control"
result = "99.6%"

[[record]]
molecule = "C=CC(=O)Nc1cc(Nc2nccc(-c3cn(C)c4ccccc34)n2)c(OC)cc1N(C)CCN(C)C + C=CC(=O)N1CCN(c2nc(OCC3CCCN3C)nc3c(F)c(-c4nc(N)cc(C)c4C(F)(F)F)c(Cl)cc23)C(C)C1"
target_entity = "898857-211-R-J1-PDC complex spheroids, growth % test/control"
result = "98.9%"

[[record]]
molecule = "CCN1CCN(Cc2ccc(Nc3ncc(F)c(-c4cc(F)c5nc(C)n(C(C)C)c5c4)n3)nc2)CC1 + C=CC(=O)N1CCN(c2nc(OCC3CCCN3C)nc3c(F)c(-c4nc(N)cc(C)c4C(F)(F)F)c(Cl)cc23)C(C)C1"
target_entity = "898857-211-R-J1-PDC complex spheroids, growth % test/control"
result = "106%"


* * *

- Test system: 898857-211-R-J1-PDC complex spheroids, growth % test/control
- ASSAY NOTES: Anticancer human tumor 898857-211-R-J1-PDC cell line growth inhibition [RAS];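 note: spheroids exposed to compound for seven days before readout; 100% = DMSO vehicle control wells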
- CONDITION CONTEXT: second compound 0.1 µM; first compound 0.0316 µM; active compounds read low
OBSERVED PROPERTY: viability, T/C (%)

[[record]]
compound = "NC1c2ccccc2OC12CCN(c1cnc3c(N4CCCc5ncccc54)n[nH]c3n1)CC2 (stereo not given) + C=CC(=O)N1CCN(c2nc(OCC3CCCN3C)nc3c(F)c(-c4nc(N)cc(C)c4C(F)(F)F)c(Cl)cc23)C(C)C1"
quantitative_readout = 98.6

[[record]]
compound = "CC(Nc1ccc2c(c1)OCCn1cc(N3C(=O)OCC3C(F)F)nc1-2)C(N)=O (stereo not given) + C#Cc1c(F)ccc2cc(O)cc(-c3ncc4c(N5CC6CCC(C5)N6)nc(OCC56CCCN5CC(F)C6)nc4c3F)c12"
quantitative_readout = 99.9

[[record]]
compound = "CC(C)n1nc(-c2ccc3oc(N)nc3c2)c2c(N)ncnc21 + C=CC(=O)N1CCN(c2nc(OCC3CCCN3C)nc3c(F)c(-c4nc(N)cc(C)c4C(F)(F)F)c(Cl)cc23)C(C)C1"
quantitative_readout = 52.7

[[record]]
compound = "CC1(O)CCCC1n1c(=O)c(C(F)F)cc2cnc(NC3CCN(S(C)(=O)=O)CC3)nc21 (stereo not given) + C#Cc1c(F)ccc2cc(O)cc(-c3ncc4c(N5CC6CCC(C5)N6)nc(OCC56CCCN5CC(F)C6)nc4c3F)c12"
quantitative_readout = 95

[[record]]
compound = "NC1c2ccccc2OC12CCN(c1cnc3c(N4CCCc5ncccc54)n[nH]c3n1)CC2 (stereo not given) + C#Cc1c(F)ccc2cc(O)cc(-c3ncc4c(N5CC6CCC(C5)N6)nc(OCC56CCCN5CC(F)C6)nc4c3F)c12"
quantitative_readout = 91.8


Source of measurements: PubChem BioAssay AID2060882
